Data provenance is ChEMBL document CHEMBL1146975.

tested on: Jurkat; assay: Cytotoxicity against human Jurkat T cells; type: functional, cell-based
Hi there, I'd appreciate the recorded pEC50 for every entry that follows.
Answers are plain numbers, as −log10 of the molar value.

Hi! Can you tell me pEC50 for each of these compounds?
1. CN1C(=O)C(Cc2ccc(-c3ccc(Br)cc3)cc2)NC(=O)c2cc(Cl)ccc21 (stereo not given)
2. CN1C(=O)C(Cc2ccc(-c3cccc(O)c3)cc2)NC(=O)c2cc(Cl)ccc21 (stereo not given)
3. Cc1ccccc1-c1ccc(CC2NC(=O)c3cc(Cl)ccc3N(C)C2=O)cc1 (stereo not given)
4. CN1C(=O)C(Cc2ccc3ccccc3c2)NC(=O)c2cc(Cl)ccc21 (stereo not given)
5. CN1C(=O)C(Cc2cccc3ccccc23)NC(=O)c2cc(Cl)ccc21 (stereo not given)

*A*
1. 5.01
2. 5.82
3. 5.27
4. 5.52
5. 4.69

---

experiment: Selectivity for Jurkat T cells over Ramos B cells; format: functional
Satisfied if Ratio EC50 is below 2. Not satisfied if not; exact matches included in Not satisfied.

*Q* Does the reported Ratio EC50 of the following compound sit strictly below 2? CN1C(=O)C(Cc2ccc(-c3ccc([N+](=O)[O-])cc3)cc2)NC(=O)c2cc(Cl)ccc21 (stereo not drawn)
*A* Not satisfied

*Q* Does the reported Ratio EC50 of the following compound sit strictly below 2? CN1C(=O)C(Cc2ccc(-c3cccnc3)cc2)NC(=O)c2cc(Cl)ccc21 (stereo not drawn)
*A* Not satisfied

*Q* Does the reported Ratio EC50 of the following compound sit strictly below 2? CN1C(=O)C(Cc2ccc(-c3cccc(Br)c3)cc2)NC(=O)c2cc(Cl)ccc21 (stereo not drawn)
*A* Satisfied

*Q* Does the reported Ratio EC50 of the following compound sit strictly below 2? Cc1cccc(-c2ccc(CC3NC(=O)c4cc(Cl)ccc4N(C)C3=O)cc2)c1 (stereo not drawn)
*A* Satisfied

*Q* Does the reported Ratio EC50 of the following compound sit strictly below 2? CN1C(=O)C(Cc2ccc(-c3ccncc3)cc2)NC(=O)c2cc(Cl)ccc21 (stereo not drawn)
*A* Not satisfied

*Q* Does the reported Ratio EC50 of the following compound sit strictly below 2? Cc1ccccc1-c1ccc(CC2NC(=O)c3cc(Cl)ccc3N(C)C2=O)cc1 (stereo not drawn)
*A* Satisfied

*Q* Does the reported Ratio EC50 of the following compound sit strictly below 2? CN1C(=O)C(Cc2ccc(-c3cccc([N+](=O)[O-])c3)cc2)NC(=O)c2cc(Cl)ccc21 (stereo not drawn)
*A* Not satisfied

*Q* Does the reported Ratio EC50 of the following compound sit strictly below 2? CN1C(=O)C(Cc2ccc(-c3ccoc3)cc2)NC(=O)c2cc(Cl)ccc21 (stereo not drawn)
*A* Not satisfied

*Q* Does the reported Ratio EC50 of the following compound sit strictly below 2? CN1C(=O)C(Cc2ccc(-c3ccc(C(=O)O)cc3)cc2)NC(=O)c2cc(Cl)ccc21 (stereo not drawn)
*A* Not satisfied

*Q* Does the reported Ratio EC50 of the following compound sit strictly below 2? CN1C(=O)C(Cc2ccc(-c3ccc(O)cc3)cc2)NC(=O)c2cc(Cl)ccc21 (stereo not drawn)
*A* Not satisfied

*Q* Does the reported Ratio EC50 of the following compound sit strictly below 2? CN1C(=O)C(Cc2ccc(-c3ccc(Br)cc3)cc2)NC(=O)c2cc(Cl)ccc21 (stereo not drawn)
*A* Not satisfied

*Q* Does the reported Ratio EC50 of the following compound sit strictly below 2? CN1C(=O)C(Cc2ccc(-c3ccccc3Cl)cc2)NC(=O)c2cc(Cl)ccc21 (stereo not drawn)
*A* Satisfied

*Q* Does the reported Ratio EC50 of the following compound sit strictly below 2? CN1C(=O)C(Cc2ccc(-c3cccc(C(F)(F)F)c3)cc2)NC(=O)c2cc(Cl)ccc21 (stereo not drawn)
*A* Satisfied

*Q* Does the reported Ratio EC50 of the following compound sit strictly below 2? CN1C(=O)C(Cc2ccc(-c3ccc(Cl)cc3)cc2)NC(=O)c2cc(Cl)ccc21 (stereo not drawn)
*A* Satisfied

*Q* Does the reported Ratio EC50 of the following compound sit strictly below 2? CN1C(=O)C(Cc2ccc(-c3cccc(O)c3)cc2)NC(=O)c2cc(Cl)ccc21 (stereo not drawn)
*A* Not satisfied

*Q* Does the reported Ratio EC50 of the following compound sit strictly below 2? Cc1ccc(-c2ccc(CC3NC(=O)c4cc(Cl)ccc4N(C)C3=O)cc2)cc1 (stereo not drawn)
*A* Satisfied

*Q* Does the reported Ratio EC50 of the following compound sit strictly below 2? CN1C(=O)C(Cc2ccc(-c3ccc(C(F)(F)F)cc3)cc2)NC(=O)c2cc(Cl)ccc21 (stereo not drawn)
*A* Satisfied

*Q* Does the reported Ratio EC50 of the following compound sit strictly below 2? CN1C(=O)C(Cc2ccc(-c3cccc(Cl)c3)cc2)NC(=O)c2cc(Cl)ccc21 (stereo not drawn)
*A* Satisfied
